system: Streptococcus pyogenes SSI-9; experiment: Antibacterial activity assay of bead-derived peptides (three concentrations); assay type: cell-based; parameters: key: +++: inhibition by the 640-fold diluted peptide solution; ++: inhibition by the 160-fold diluted solution; +: inhibition by the 40-fold diluted solution; -: no inhibition; conditions: S. pyogenes, bead-derived peptide solution, three concentrations
Where a SMILES comes first, the peptide text is derived from it. [ ]: non-standard residue; d: D form. The star is where a group is joined. NHCH2CH2OH = OCCN*; For = O=C*
Quantity: antibacterial activity

{"columns": ["Compound", "Quantity", "Observed Value"],
 "data": [
  ["CC(C)C[C@@H](NC(=O)[C@H](C)NC(=O)[C@H](NC(=O)[C@H](C)NC(=O)CNC(=O)[C@@H](NC=O)C(C)C)C(C)C)C(=O)N[C@H](C(=O)N[C@@H](C(=O)N[C@@H](Cc1c[nH]c2ccccc12)C(=O)N[C@@H](C(=O)N[C@@H](Cc1c[nH]c2ccccc12)C(=O)N[C@H](CC(C)C)C(=O)N[C@@H](Cc1c[nH]c2ccccc12)C(=O)N[C@H](CC(C)C)C(=O)N[C@@H](Cc1c[nH]c2ccccc12)C(=O)NCCO)[C@H](C)O)[C@H](C)O)C(C)C [compound 10517] (For-VGA[dV]A[dL]V[dT]W[dT]W[dL]W[dL]W-NHCH2CH2OH)", "antibacterial activity", "-"],
  ["CC(C)C[C@@H](NC(=O)[C@@H](NC(=O)[C@H](NC(=O)[C@H](C)NC(=O)[C@H](NC(=O)[C@H](C)NC(=O)CNC(=O)[C@@H](NC=O)C(C)C)[C@H](C)O)C(C)C)C(C)C)C(=O)N[C@@H](Cc1c[nH]c2ccccc12)C(=O)N[C@@H](C(=O)N[C@@H](Cc1c[nH]c2ccccc12)C(=O)N[C@@H](C(=O)N[C@@H](Cc1c[nH]c2ccccc12)C(=O)N[C@@H](C(=O)N[C@@H](Cc1c[nH]c2ccccc12)C(=O)NCCO)C(C)C)C(C)C)C(C)C [compound 3631] (For-VGA[dT]A[dV]V[dL]W[dV]W[dV]W[dV]W-NHCH2CH2OH)", "antibacterial activity", "-"]
]}

Reference for the values: paper PMC7531004
